System: 276233-004-R-J1-PDC spheroids with HUVEC/MSC, viability
Assay: Anticancer human tumor 276233-004-R-J1-PDC patient-derived colon adenocarcinoma cell line growth inhibition [TAK]
Conditions: second compound 3 µM; first compound 0.0316 µM; stronger effect = lower value
Listing of recorded viability, T/C by entry.
Output spec: scalar in %, unitless text.

CC(C)CC(NC(=O)CNC(=O)c1cc(Cl)ccc1Cl)B1OC(=O)CC(CC(=O)O)(C(=O)O)O1 (stereo unspecified) + CC(C)NCC(C(=O)N1CCN(c2ncnc3c2C(C)CC3O)CC1)c1ccc(Cl)cc1; 64.4
COC1CC2CCC(C)C(O)(O2)C(=O)C(=O)N2CCCCC2C(=O)OC(C(C)CC2CCC(OCCO)C(OC)C2)CC(=O)C(C)C=C(C)C(O)C(OC)C(=O)C(C)CC(C)C=CC=CC=C1C (stereo unspecified) + CC(C)NCC(C(=O)N1CCN(c2ncnc3c2C(C)CC3O)CC1)c1ccc(Cl)cc1; 54.9
Cc1nc(NC(=O)N2CCCC2C(N)=O)sc1-c1ccnc(C(C)(C)C(F)(F)F)c1 (stereo unspecified) + CC(C)NCC(C(=O)N1CCN(c2ncnc3c2C(C)CC3O)CC1)c1ccc(Cl)cc1; 63.7
CC(C)n1nc(-c2ccc3oc(N)nc3c2)c2c(N)ncnc21 + CC(C)NCC(C(=O)N1CCN(c2ncnc3c2C(C)CC3O)CC1)c1ccc(Cl)cc1; 69.5
CC(C)(C)c1nc(-c2cccc(NS(=O)(=O)c3c(F)cccc3F)c2F)c(-c2ccnc(N)n2)s1 + CC(C)NCC(C(=O)N1CCN(c2ncnc3c2C(C)CC3O)CC1)c1ccc(Cl)cc1; 80.6

Kindly consider the entry below.
Entry COc1c(OCCCN2CCOCC2)ccc2c3n(c(=NC(=O)c4cnc(N)nc4)nc12)CCN3 + CC(C)NCC(C(=O)N1CCN(c2ncnc3c2C(C)CC3O)CC1)c1ccc(Cl)cc1 ; viability, T/C = 46.8

* * *

System: 276233-004-R-J1-PDC spheroids with HUVEC/MSC, viability
Assay: Anticancer human tumor 276233-004-R-J1-PDC cell line growth inhibition [TAK];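 further: spheroids exposed to drugs for seven days before the viability read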
Settings: second compound 0.3 µM; first compound 0.001 µM; stronger effect = lower value
attributeMeasured: viability, T/C (%)
Quick reminder: number only, in %, skip the unit.

# annotated cases, reported viability, T/C shown
CC(C)CC(NC(=O)C(Cc1ccccc1)NC(=O)c1cnccn1)B(O)O (centres undefined) + CC(C)NCC(C(=O)N1CCN(c2ncnc3c2C(C)CC3O)CC1)c1ccc(Cl)cc1; 109
CC(C)n1nc(-c2ccc3oc(N)nc3c2)c2c(N)ncnc21 + CC(C)NCC(C(=O)N1CCN(c2ncnc3c2C(C)CC3O)CC1)c1ccc(Cl)cc1; 98.7
CC(C)CC(NC(=O)CNC(=O)c1cc(Cl)ccc1Cl)B1OC(=O)CC(CC(=O)O)(C(=O)O)O1 (centres undefined) + CC(C)NCC(C(=O)N1CCN(c2ncnc3c2C(C)CC3O)CC1)c1ccc(Cl)cc1; 103

Let us examine a further case.
Looking up COC1CC2CCC(C)C(O)(O2)C(=O)C(=O)N2CCCCC2C(=O)OC(C(C)CC2CCC(OCCO)C(OC)C2)CC(=O)C(C)C=C(C)C(O)C(OC)C(=O)C(C)CC(C)C=CC=CC=C1C (centres undefined) + CC(C)NCC(C(=O)N1CCN(c2ncnc3c2C(C)CC3O)CC1)c1ccc(Cl)cc1 , I found its viability, T/C recorded as 81.9

* * *

System: 276233-004-R-J1-PDC spheroids with HUVEC/MSC, viability
Experiment: Anticancer human tumor 276233-004-R-J1-PDC cell line growth inhibition [TAK];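 further: spheroids exposed to drugs for seven days before the viability read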
Details: second compound 9.49 µM; first compound 0.1 µM; stronger effect = lower value
Experimental: Combinatorial screen of targeted agents with TAK-243 and ipatasertib in multi-cell type tumor spheroids […] Compounds. […] If the clinical Cmax for an agent had not been determined, the highest concentration tested was 10 microM. NCI60 Cell Culture. […] The optimal seeding densities for each of the cell lines at each time point assessed were determined prior to performing the concentration response studies. […]
Please use 1 for viability, T/C under 60% and -1 for everything else, ties included.

CC(C)CC(NC(=O)CNC(=O)c1cc(Cl)ccc1Cl)B1OC(=O)CC(CC(=O)O)(C(=O)O)O1 (stereo unspecified) + CC(C)NCC(C(=O)N1CCN(c2ncnc3c2C(C)CC3O)CC1)c1ccc(Cl)cc1; 1
Cc1nc(NC(=O)N2CCCC2C(N)=O)sc1-c1ccnc(C(C)(C)C(F)(F)F)c1 (stereo unspecified) + CC(C)NCC(C(=O)N1CCN(c2ncnc3c2C(C)CC3O)CC1)c1ccc(Cl)cc1; -1

Challenge: Given COC1CC2CCC(C)C(O)(O2)C(=O)C(=O)N2CCCCC2C(=O)OC(C(C)CC2CCC(OCCO)C(OC)C2)CC(=O)C(C)C=C(C)C(O)C(OC)C(=O)C(C)CC(C)C=CC=CC=C1C (stereo unspecified) + CC(C)NCC(C(=O)N1CCN(c2ncnc3c2C(C)CC3O)CC1)c1ccc(Cl)cc1 , is recorded viability, T/C strictly lower than 60%?
Response given: 1

Challenge: Consider the compound COc1c(OCCCN2CCOCC2)ccc2c3n(c(=NC(=O)c4cnc(N)nc4)nc12)CCN3 + CC(C)NCC(C(=O)N1CCN(c2ncnc3c2C(C)CC3O)CC1)c1ccc(Cl)cc1 . Is its viability, T/C strictly less than 60%?
Response given: 1

Challenge: is_below(viability, T/C, 60%) for CC(C)(C)c1nc(-c2cccc(NS(=O)(=O)c3c(F)cccc3F)c2F)c(-c2ccnc(N)n2)s1 + CC(C)NCC(C(=O)N1CCN(c2ncnc3c2C(C)CC3O)CC1)c1ccc(Cl)cc1 ?
Response given: -1

* * *

// viability, T/C lookup, one value per entry
System: 276233-004-R-J1-PDC spheroids with HUVEC/MSC, viability
Experiment: Anticancer human tumor 276233-004-R-J1-PDC cell line growth inhibition [TAK];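 further: spheroids exposed to drugs for seven days before the viability read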
Conditions: second compound 9.49 µM; first compound 0.000316 µM; stronger effect = lower value
Express it in %; write the number only.

The following compounds have reported results that may help.
COC1CC2CCC(C)C(O)(O2)C(=O)C(=O)N2CCCCC2C(=O)OC(C(C)CC2CCC(OCCO)C(OC)C2)CC(=O)C(C)C=C(C)C(O)C(OC)C(=O)C(C)CC(C)C=CC=CC=C1C (centres undefined) + CC(C)NCC(C(=O)N1CCN(c2ncnc3c2C(C)CC3O)CC1)c1ccc(Cl)cc1; 55.9
CC(C)CC(NC(=O)C(Cc1ccccc1)NC(=O)c1cnccn1)B(O)O (centres undefined) + CC(C)NCC(C(=O)N1CCN(c2ncnc3c2C(C)CC3O)CC1)c1ccc(Cl)cc1; 73.4
CC(C)CC(NC(=O)CNC(=O)c1cc(Cl)ccc1Cl)B1OC(=O)CC(CC(=O)O)(C(=O)O)O1 (centres undefined) + CC(C)NCC(C(=O)N1CCN(c2ncnc3c2C(C)CC3O)CC1)c1ccc(Cl)cc1; 74.6

Next up:
Consider CC(C)n1nc(-c2ccc3oc(N)nc3c2)c2c(N)ncnc21 + CC(C)NCC(C(=O)N1CCN(c2ncnc3c2C(C)CC3O)CC1)c1ccc(Cl)cc1 . Its measured viability, T/C is 74.8

* * *

Listed compounds paired with reported viability, T/C
Test system: 276233-004-R-J1-PDC spheroids with HUVEC/MSC, viability
Test: Anticancer human tumor 276233-004-R-J1-PDC cell line growth inhibition [TAK];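 further: spheroids exposed to drugs for seven days before the viability read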
Details: second compound 0.3 µM; first compound 0.00316 µM; stronger effect = lower value
Provide only the numeric value, understood in %.

Use these answered entries as a reference point.
CC(C)CC(NC(=O)C(Cc1ccccc1)NC(=O)c1cnccn1)B(O)O (stereo not drawn) + CC(C)NCC(C(=O)N1CCN(c2ncnc3c2C(C)CC3O)CC1)c1ccc(Cl)cc1; 104
COc1c(OCCCN2CCOCC2)ccc2c3n(c(=NC(=O)c4cnc(N)nc4)nc12)CCN3 + CC(C)NCC(C(=O)N1CCN(c2ncnc3c2C(C)CC3O)CC1)c1ccc(Cl)cc1; 74.1

Let's switch to this compound now.
Field viability, T/C (entry CC(C)n1nc(-c2ccc3oc(N)nc3c2)c2c(N)ncnc21 + CC(C)NCC(C(=O)N1CCN(c2ncnc3c2C(C)CC3O)CC1)c1ccc(Cl)cc1 ) reads 89.5

// data source = PubChem BioAssay AID2060359
